Assay Overview: Plasma pharmacokinetics by LC/PDA
Condition Label: human, in vivo, im, Panobinostat Cmax (mean), 20 mg, D15, with IM 400 mg
Readout: Cmax

QUERY: For Cc1[nH]c2ccccc2c1CCNCc1ccc(/C=C/C(=O)NO)cc1 , what is its reported Cmax?
RESULT: 44.6 nM

====

Assay Overview: Plasma pharmacokinetics by LC/PDA
Condition Label: human, in vivo, im, 400 mg, IM Cmax (mean), 400 mg once daily, with pan
Structures can show the parent of a compound that is named as a salt.
Readout: Cmax (µM)
# value in µM; strip the unit string

QUERY: What value of measured Cmax is listed for Cc1ccc(NC(=O)c2ccc(CN3CCN(C)CC3)cc2)cc1Nc1nccc(-c2cccnc2)n1 [IM, Imatinib mesylate] ?
RESULT: 4.3
